# measurementTarget: PICK1, Q9NRD5
# Sequence (Q9NRD5 17-115): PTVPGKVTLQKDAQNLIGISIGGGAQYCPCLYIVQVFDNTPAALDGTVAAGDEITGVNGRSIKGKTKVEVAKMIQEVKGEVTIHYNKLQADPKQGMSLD
# protocolNotes: holdup assay
# Design: key: below the threshold = too weak to quantify, mostly under pKd 3.1 to 4
# reportedConditions: plain residues with an end cap or a label only (N-terminal biotin on a linker: ado-ado)
valueKind: pKd

PPYRHRNTVV [ERBB4, Q15303]	below the threshold
VDSTVKVWTC [TRAF7, Q6Q0C0]	below the threshold
RRISSLESEV [GRIN2C, Q14957]	below the threshold
IPLDGETEEL [MYOZ1, Q9NP98]	below the threshold
FNSYSLTGYV [CLDN2, P57739]	4.14

Then this binder:
Record TSSMRGMDAV [RSRC2, Q7L4I2] . Reported pKd: below the threshold
